Please provide measured eff. (efficiency %), cytotoxic effect on MSTO-211H cells for the entries that follow.
Target: TRAILR2 receptor on the surface of human tumor cells (human, UniProt O14763 56-440)
Experiment: cell-based or functional assay
Form entry: value (%) — number only.

Q. GET /values?readout=eff. (efficiency %), cytotoxic effect on MSTO-211H cells&item= Zapadcine-3d (antibody, V domains shown, MMAE coupled through linker MC by thiol conventional coupling, non-cleavable; positions not given) VH: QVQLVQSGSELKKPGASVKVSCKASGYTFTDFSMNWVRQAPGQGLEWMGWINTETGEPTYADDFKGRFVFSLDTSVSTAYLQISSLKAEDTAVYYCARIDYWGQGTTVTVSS VL: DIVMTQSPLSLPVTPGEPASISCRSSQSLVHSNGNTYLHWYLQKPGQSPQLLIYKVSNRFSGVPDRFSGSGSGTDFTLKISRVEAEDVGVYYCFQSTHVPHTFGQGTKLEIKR
A. 98.5

Q. Sample Zapadcine-3c (antibody, V domains shown, MMAE coupled through linker MC-VC-PAB by thiol conventional coupling, cleavable; positions not given) VH: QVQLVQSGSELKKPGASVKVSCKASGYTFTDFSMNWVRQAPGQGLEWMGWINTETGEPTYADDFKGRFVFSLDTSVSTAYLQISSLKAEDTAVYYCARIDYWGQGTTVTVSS VL: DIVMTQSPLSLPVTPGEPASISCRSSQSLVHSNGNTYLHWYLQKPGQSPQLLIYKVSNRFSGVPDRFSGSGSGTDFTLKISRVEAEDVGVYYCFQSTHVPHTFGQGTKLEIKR — what was its eff. (efficiency %), cytotoxic effect on MSTO-211H cells?
A. 98.2

Q. State the recorded eff. (efficiency %), cytotoxic effect on MSTO-211H cells for this entry: Zapadcine-3e (antibody, V domains shown, MMAF coupled through linker MC by thiol conventional coupling, non-cleavable; positions not given) VH: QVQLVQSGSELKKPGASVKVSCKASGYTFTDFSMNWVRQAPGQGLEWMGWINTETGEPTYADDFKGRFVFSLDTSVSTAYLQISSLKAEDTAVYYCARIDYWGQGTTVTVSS VL: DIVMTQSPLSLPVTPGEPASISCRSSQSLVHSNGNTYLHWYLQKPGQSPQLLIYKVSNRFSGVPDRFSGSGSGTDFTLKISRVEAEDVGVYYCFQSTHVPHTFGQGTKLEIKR
A. 99.1

All values here come from patent US20200407457A1.
